# Tested target: Sodium/glucose cotransporter 2 (Homo sapiens, UniProt P31639)
# Sequence (P31639 whole entry): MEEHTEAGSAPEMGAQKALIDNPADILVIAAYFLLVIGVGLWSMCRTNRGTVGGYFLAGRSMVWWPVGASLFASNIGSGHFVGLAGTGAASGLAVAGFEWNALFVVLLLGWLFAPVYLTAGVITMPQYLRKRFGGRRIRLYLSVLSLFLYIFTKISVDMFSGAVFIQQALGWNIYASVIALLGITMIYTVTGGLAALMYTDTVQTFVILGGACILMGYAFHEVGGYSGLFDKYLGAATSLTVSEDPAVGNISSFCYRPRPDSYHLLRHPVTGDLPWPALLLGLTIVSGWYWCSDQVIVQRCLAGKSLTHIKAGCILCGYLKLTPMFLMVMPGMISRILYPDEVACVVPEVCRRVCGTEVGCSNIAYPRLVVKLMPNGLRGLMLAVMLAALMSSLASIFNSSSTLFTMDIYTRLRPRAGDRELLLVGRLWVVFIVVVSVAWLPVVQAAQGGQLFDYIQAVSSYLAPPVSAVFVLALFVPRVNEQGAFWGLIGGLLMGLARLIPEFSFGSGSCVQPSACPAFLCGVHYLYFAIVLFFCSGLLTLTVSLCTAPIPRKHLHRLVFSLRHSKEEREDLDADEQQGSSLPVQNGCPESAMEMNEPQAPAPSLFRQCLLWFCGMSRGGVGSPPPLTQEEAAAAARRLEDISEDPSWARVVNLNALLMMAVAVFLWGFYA
# Experiment summary: Inhibition of human SGLT2 expressed in CHO-K1 cells assessed as reduction in [14C]-alpha-methylglucopyranoside uptake after 2 hrs by liquid scintillation counting
Cut-off 20 µM on EC50: below means Yes, at or above means No.

Some solved entries appear below for comparison.
Req: Hi there! Is EC50 for OC[C@H]1O[C@@H](n2cc(Cc3ccc(C4CC4)cc3)c3c(Cl)cccc32)[C@H](O)[C@@H](O)[C@@H]1O below 20 µM, do you know?
Resp: Yes

Req: Hi there! Is EC50 for COc1cc(C(Nc2cccc(C)n2)c2ccc3ccc(C)nc3c2O)cc(OC)c1OC (centres undefined) below 20 µM, do you know?
Resp: Yes

***
Req: Hi there! Is EC50 for CCc1ccc(Cc2cc([C@@H]3O[C@H](CO)[C@@H](O)[C@H](O)[C@H]3O)ccc2C)cc1 below 20 µM, do you know?
Resp: Yes

Req: Hi there! Is EC50 for Cn1cc(CCc2ccc3c(c2)CCO3)c2c(O[C@@H]3O[C@H](CO)[C@@H](O)[C@H](O)[C@H]3O)cccc21 below 20 µM, do you know?
Resp: Yes

Req: Hi there! Is EC50 for N=c1n(Cc2ccccc2)c2ccccc2n1CC(O)c1ccco1 (centres undefined) below 20 µM, do you know?
Resp: No
